Test system: Mus musculus
test details: Antiobesity in C57Bl/6J mouse assessed as reduction in gall bladder weight at 0.6 mg/kg, po measured after 1 hr relative to control
Assay type: functional
Design: scale not given: the % may be the effect or the level left
measured property: Activity
Number first, unit second.

Study these solved cases before continuing.
| compound | Activity |
| --- | --- |
| Cc1cc(C)cc(C[C@H]2CCCCN2C(=O)CN2C(=O)[C@@H](Cc3n[nH]c4ccccc34)c3nnc(-c4ccccc4)n3-c3ccccc32)c1 | 89% |
| CC(C)N(Cc1ccccc1)C(=O)CN1C(=O)[C@@H](Cc2c[nH]c3ccccc23)c2nnc(-c3ccccc3)n2-c2ccccc21 | 91% |

For the 2 compounds below, give their Activity values.
1. O=C1[C@@H](Cc2n[nH]c3ccccc23)c2nnc(-c3ccccc3)n2-c2ccccc2N1CC(=O)N1CCCCC1Cc1ccccc1 (some centres undefined)
2. COCCC1CCCCN1C(=O)CN1C(=O)[C@@H](Cc2n[nH]c3ccccc23)c2nnc(-c3ccccc3)n2-c2ccccc21 (single isomer, unassigned)

## Output
["91%", "85%"]

###

Test system: Plasma
test details: Plasma clearance in Sprague-Dawley rat at 0.3 mg/kg, iv
Format: ADME, organism-based
Parameters: dose 0.3 mg/kg, route intravenous
test settings: in vivo
measured property: clearance (mL/min/kg)
One number for each entry, in mL/min/kg.

Input Cc1cc(C)cc(C[C@H]2CCCCN2C(=O)CN2C(=O)[C@@H](Cc3n[nH]c4ccccc34)c3nnc(-c4ccccc4)n3-c3ccccc32)c1 . Output clearance: 176

###

experimental system: Cholecystokinin receptor type A (Homo sapiens, UniProt P32238)
test details: Agonist activity at human CCK1 receptor assessed as increase in CCK8-induced calcium release incubated in dark for 30 mins followed by light incubation for 30 mins measured by FLIPR assay
measured property: EC50 (nM)
One number for each entry, in nM.

| compound | quantity unit | EC50 |
| --- | --- | --- |
| O=C1C(Cc2c[nH]c3ccccc23)c2nnc(-c3ccccc3)n2-c2ccccc2N1CC(=O)N1CCCC1Cc1ccccn1 (mixture of isomers) | nM | 560 |
| CCC1CCCCN1C(=O)CN1C(=O)C(Cc2c[nH]c3ccccc23)c2nnc(-c3ccccc3)n2-c2ccccc21 (mixture of isomers) | nM | 400 |
| CC(C)N(Cc1ccccc1)C(=O)CN1C(=O)[C@@H](Cc2n[nH]c3ccccc23)c2nnc(-c3ccccc3)n2-c2ccccc21 | nM | 380 |

--- query ---
response.value for O=C1C(Cc2c[nH]c3ccccc23)c2nnc(-c3ccccc3)n2-c2ccccc2N1CC(=O)N1CCCCC1Cc1ccccc1 (mixture of isomers) (field: EC50) = 84.2

###

Protein target, amino acids: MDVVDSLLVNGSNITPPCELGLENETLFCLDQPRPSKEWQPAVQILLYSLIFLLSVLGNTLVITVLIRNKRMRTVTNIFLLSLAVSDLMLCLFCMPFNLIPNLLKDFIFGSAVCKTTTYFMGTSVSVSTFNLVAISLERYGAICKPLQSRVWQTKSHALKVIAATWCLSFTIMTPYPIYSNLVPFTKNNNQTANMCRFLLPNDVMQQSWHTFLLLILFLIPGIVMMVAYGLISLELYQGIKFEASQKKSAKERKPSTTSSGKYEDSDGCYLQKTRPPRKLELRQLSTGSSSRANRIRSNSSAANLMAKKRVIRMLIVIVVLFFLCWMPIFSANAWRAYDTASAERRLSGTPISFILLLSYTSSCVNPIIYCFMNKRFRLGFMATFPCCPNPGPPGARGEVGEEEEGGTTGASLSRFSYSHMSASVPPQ
Record form. Attribute: pIC50. Fill in for each entry.
Numbers only, as −log10 of the molar value.

Check out these entries, answers already filled in.
| compound | pIC50 |
| --- | --- |
| CCC1CCCCN1C(=O)CN1C(=O)C(Cc2c[nH]c3ccccc23)c2nnc(-c3ccccc3)n2-c2ccccc21 (mixture of isomers) | 7.43 |
| Cc1cccc(CC2CCCCN2C(=O)CN2C(=O)[C@@H](Cc3n[nH]c4ccccc34)c3nnc(-c4ccccc4)n3-c3ccccc32)c1 (stereo not given in full) | 7.06 |
| O=C1C(Cc2c[nH]c3ccccc23)c2nnc(-c3ccccc3)n2-c2ccccc2N1CC(=O)N1CCCCC1Cc1ccccn1 (mixture of isomers) | 7.03 |
| O=C1C(Cc2c[nH]c3ccccc23)c2nnc(-c3ccccc3)n2-c2ccccc2N1CC(=O)N1CCCCC1CC1CCCCC1 (mixture of isomers) | 8.37 |

Please turn your attention to the following entry.
For reference, reported pIC50 for COCCC1CCCCN1C(=O)CN1C(=O)[C@@H](Cc2n[nH]c3ccccc23)c2nnc(-c3ccccc3)n2-c2ccccc21 (single isomer, unassigned) stands at 8.00

###

test details: Tmax in Sprague-Dawley rat at 6 mg/kg, po
Assay type: ADME, organism-based
Design: dose 6 mg/kg, route oral
test settings: in vivo
measured property: Tmax (min)
Give bare numbers, in min.

| compound | endpoint result |
| --- | --- |
| CC(C)N(Cc1ccccc1)C(=O)CN1C(=O)[C@@H](Cc2c[nH]c3ccccc23)c2nnc(-c3ccccc3)n2-c2ccccc21 [CE-326597] | 79.8 |

We now examine a further compound.
// Cc1cc(C)cc(C[C@H]2CCCCN2C(=O)CN2C(=O)[C@@H](Cc3n[nH]c4ccccc34)c3nnc(-c4ccccc4)n3-c3ccccc32)c1 : Tmax value = 15

###

Would you mind telling me the reported dose excreted at 24 h of each entry?
test details: Drug excretion in Sprague-Dawley rat bile at 1 mg/kg, iv measured after 24 hrs
Type: ADME, organism-based
Set-up: dose 1 mg/kg, route intravenous
test settings: read-out: Ae
Give bare numbers, in %.

| molecule | endpoint result |
| --- | --- |
| O=C1[C@@H](Cc2n[nH]c3ccccc23)c2nnc(-c3ccccc3)n2-c2ccccc2N1CC(=O)N1CCCCC1Cc1ccccc1 (some centres undefined) | 0.32 |
| CC(C)N(Cc1ccccc1)C(=O)CN1C(=O)[C@@H](Cc2c[nH]c3ccccc23)c2nnc(-c3ccccc3)n2-c2ccccc21 | 0.04 |
| Cc1cc(C)cc(C[C@H]2CCCCN2C(=O)CN2C(=O)[C@@H](Cc3n[nH]c4ccccc34)c3nnc(-c4ccccc4)n3-c3ccccc32)c1 | 0.044 |

Turning now to a further record.
Lab note: measured dose excreted at 24 h of COCCC1CCCCN1C(=O)CN1C(=O)[C@@H](Cc2n[nH]c3ccccc23)c2nnc(-c3ccccc3)n2-c2ccccc21 (single isomer, unassigned) was 0.26

###

experimental system: Cholecystokinin receptor type A (Homo sapiens) (UniProt P32238)
test details: Agonist activity at human CCK1 receptor assessed as increase in CCK8-induced calcium release incubated in dark for 30 mins followed by light incubation for 30 mins measured by FLIPR assay relative to CCK8
Assay type: functional
For each record, write down the corresponding Efficacy.
Give bare numbers, in %.

| compound | quantity unit | Efficacy |
| --- | --- | --- |
| Cc1cc(C)cc(C[C@H]2CCCCN2C(=O)CN2C(=O)[C@@H](Cc3n[nH]c4ccccc34)c3nnc(-c4ccccc4)n3-c3ccccc32)c1 | % | 89 |
| O=C1C(Cc2c[nH]c3ccccc23)c2nnc(-c3ccccc3)n2-c2ccccc2N1CC(=O)N1CCCCC1Cc1ccccc1 (mixture of isomers) | % | 78 |
| O=C1C(Cc2c[nH]c3ccccc23)c2nnc(-c3ccccc3)n2-c2ccccc2N1CC(=O)N1CCCCC1c1ccccc1 (mixture of isomers) | % | 87 |

Working through the 3 compounds below one at a time, give Efficacy for each.
1. COCCC1CCCCN1C(=O)CN1C(=O)C(Cc2c[nH]c3ccccc23)c2nnc(-c3ccccc3)n2-c2ccccc21 (mixture of isomers)
2. O=C1[C@@H](Cc2n[nH]c3ccccc23)c2nnc(-c3ccccc3)n2-c2ccccc2N1CC(=O)N1CCCCC1Cc1ccccc1 (stereo partly drawn)
3. CC(C)C1CCCCN1C(=O)CN1C(=O)C(Cc2c[nH]c3ccccc23)c2nnc(-c3ccccc3)n2-c2ccccc21 (mixture of isomers)

## Output
97
103
95

For each listed entry, give its Efficacy.
1. O=C(CN1C(=O)C(Cc2c[nH]c3ccccc23)c2nnc(-c3ccccc3)n2-c2ccccc21)N1CCC(Cc2ccccc2)C1 (mixture of isomers)
2. CC(C)N(Cc1ccccc1)C(=O)CN1C(=O)[C@@H](Cc2c[nH]c3ccccc23)c2nnc(-c3ccccc3)n2-c2ccccc21
3. O=C1C(Cc2c[nH]c3ccccc23)c2nnc(-c3ccccc3)n2-c2ccccc2N1CC(=O)N1CCCCC1Cc1ccncc1 (mixture of isomers)

## Output
[85, 95, 89]

Batch request: Efficacy for each of the following compounds.
1. O=C1C(Cc2c[nH]c3ccccc23)c2nnc(-c3ccccc3)n2-c2ccccc2N1CC(=O)N1CCCC1c1ccccc1 (mixture of isomers)
2. O=C1C(Cc2c[nH]c3ccccc23)c2nnc(-c3ccccc3)n2-c2ccccc2N1CC(=O)N1CCCC1Cc1ccccn1 (mixture of isomers)
3. Cc1cccc(CC2CCCCN2C(=O)CN2C(=O)[C@@H](Cc3n[nH]c4ccccc34)c3nnc(-c4ccccc4)n3-c3ccccc32)c1 (stereo partly drawn)
4. CCC1CCCCN1C(=O)CN1C(=O)C(Cc2c[nH]c3ccccc23)c2nnc(-c3ccccc3)n2-c2ccccc21 (mixture of isomers)

## Output
[83, 86, 75, 78]
